Could you please report measured DC50 for the items listed next?
Experimental system: SMARCA4 (Homo sapiens)
Construct: SMARCA2/SMARCA4 protein degradation selectivity in MV4-11 cells; endogenous in cells; host or cells: MV4-11
Assay protocol: SMARCA4 Western blot degradation in MV4-11 cells
Assay type: cell-based
Condition notes: MV4-11 cells, 24 h; read-out: SMARCA4 MSD MV411 degradation 24 h: Mean external-Abs DC50

C#Cc1ccc(CNC(=O)[C@@H]2C[C@@H](O)CN2C(=O)[C@@H](NC(=O)N2CCN(CC3CCN([C@H]4CC[C@@H](N5CCN6c7cc(-c8ccccc8O)nnc7NC[C@H]6C5)CC4)CC3)CC2)C(C)(C)C)cc1 : > 100 nM
C#Cc1ccc(CNC(=O)[C@@H]2C[C@@H](O)CN2C(=O)[C@@H](OC(=O)N2CC3(CC(N4CCC(c5cnc(N6CCc7[nH]c8nnc(-c9ccccc9O)cc8c7[C@H]6C)nc5)CC4)C3)C2)C(C)(C)C)cc1 : 10 to 100 nM
C#Cc1ccc(CNC(=O)[C@@H]2C[C@@H](O)CN2C(=O)[C@@H](NC(=O)N2CC3(CC(N4CCC(N5CCC(N6CCc7[nH]c8nnc(-c9ccccc9O)cc8c7[C@H]6C)CC5)CC4)C3)C2)C(C)(C)C)cc1 (single isomer, unassigned) : > 100 nM

Could you now consider this next compound?
What does the data say about its DC50? Entry: C#Cc1ccc(CNC(=O)[C@@H]2C[C@@H](O)CN2C(=O)[C@@H](NC(=O)N2CCC(CN3CCC(N4CCc5[nH]c6nnc(-c7ccccc7O)cc6c5[C@H]4C)CC3)CC2)C(C)(C)C)cc1
> 100 nM

###

Experimental system: SMARCA2 (Homo sapiens, UniProt P51531)
Sequence (P51531 whole entry): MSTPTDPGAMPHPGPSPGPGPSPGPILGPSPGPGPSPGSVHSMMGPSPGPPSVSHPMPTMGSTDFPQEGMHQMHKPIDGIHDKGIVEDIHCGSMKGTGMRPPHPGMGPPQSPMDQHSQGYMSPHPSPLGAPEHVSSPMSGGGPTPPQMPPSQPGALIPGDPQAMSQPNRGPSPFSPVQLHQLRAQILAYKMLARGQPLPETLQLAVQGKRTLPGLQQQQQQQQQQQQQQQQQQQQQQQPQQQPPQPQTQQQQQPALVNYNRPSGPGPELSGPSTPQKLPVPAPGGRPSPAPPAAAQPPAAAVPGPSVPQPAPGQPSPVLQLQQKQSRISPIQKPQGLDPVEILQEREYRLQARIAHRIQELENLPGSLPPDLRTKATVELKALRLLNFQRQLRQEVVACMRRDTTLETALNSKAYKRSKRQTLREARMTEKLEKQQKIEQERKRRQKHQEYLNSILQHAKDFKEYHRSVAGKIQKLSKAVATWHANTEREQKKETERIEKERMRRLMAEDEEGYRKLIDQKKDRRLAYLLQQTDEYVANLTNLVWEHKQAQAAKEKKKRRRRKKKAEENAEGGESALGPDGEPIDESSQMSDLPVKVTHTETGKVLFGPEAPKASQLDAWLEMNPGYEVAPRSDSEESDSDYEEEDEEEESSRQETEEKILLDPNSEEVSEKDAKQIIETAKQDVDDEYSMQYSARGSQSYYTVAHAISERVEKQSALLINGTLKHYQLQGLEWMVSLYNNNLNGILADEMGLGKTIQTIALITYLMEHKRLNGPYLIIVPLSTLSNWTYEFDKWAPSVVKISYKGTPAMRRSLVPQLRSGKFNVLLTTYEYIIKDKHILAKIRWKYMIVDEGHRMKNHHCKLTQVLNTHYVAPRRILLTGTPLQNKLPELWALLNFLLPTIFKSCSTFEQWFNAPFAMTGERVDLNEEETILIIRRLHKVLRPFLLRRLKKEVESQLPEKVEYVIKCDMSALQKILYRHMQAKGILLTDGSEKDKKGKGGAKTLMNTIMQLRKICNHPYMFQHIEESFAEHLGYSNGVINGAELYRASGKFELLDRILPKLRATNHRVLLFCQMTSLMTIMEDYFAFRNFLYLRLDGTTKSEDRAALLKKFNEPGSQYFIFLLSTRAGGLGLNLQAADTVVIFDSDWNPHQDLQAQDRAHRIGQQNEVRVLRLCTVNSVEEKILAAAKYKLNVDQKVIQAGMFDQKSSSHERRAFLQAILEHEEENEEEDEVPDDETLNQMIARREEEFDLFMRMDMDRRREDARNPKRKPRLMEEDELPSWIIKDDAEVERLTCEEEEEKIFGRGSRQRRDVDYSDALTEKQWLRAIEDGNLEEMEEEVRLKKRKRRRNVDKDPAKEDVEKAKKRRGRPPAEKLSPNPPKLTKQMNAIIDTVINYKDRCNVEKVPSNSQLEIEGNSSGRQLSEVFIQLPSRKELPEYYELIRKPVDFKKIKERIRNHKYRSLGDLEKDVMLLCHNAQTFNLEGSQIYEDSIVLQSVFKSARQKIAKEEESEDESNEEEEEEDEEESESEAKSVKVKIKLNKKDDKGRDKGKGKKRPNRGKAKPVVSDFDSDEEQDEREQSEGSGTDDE
Assay protocol: SMARCA2 Western blot degradation in MV4-11 cells
Format: cell-based
Design: SMARCA2/SMARCA4 protein degradation selectivity in MV4-11 cells; endogenous in cells; host or cells: MV4-11
Condition notes: MV4-11 cells, 24 h; read-out: SMARCA2 MSD MV411 degradation 24 h: Mean external-Abs DC50
Observable: DC50

Worked examples, 3 molecules total:
C#Cc1ccc(C2(NC(=O)[C@@H]3C[C@@H](O)CN3C(=O)[C@@H](NC(=O)[C@H]3CC4(C3)C[C@H](N3CCC(N5CCC(N6CCN7c8cc(-c9ccccc9O)nnc8NC[C@H]7C6)CC5)CC3)C4)C(C)(C)C)CC2)cc1 (single isomer, unassigned) [I-225] : 1 to 10 nM
Cc1ncsc1-c1ccc(CNC(=O)[C@@H]2C[C@@H](O)CN2C(=O)C(c2cc(N3CC4(CC(N5CCC(c6cnc(N7CCc8[nH]c9nnc(-c%10ccccc%10O)cc9c8[C@@H]7C)nc6)CC5)C4)C3)no2)C(C)C)cc1 (stereo partly shown) [I-11] : 1 to 10 nM
C#Cc1ccc(CNC(=O)[C@@H]2C[C@@H](O)CN2C(=O)[C@@H](NC(=O)[C@H]2CC[C@@H](CN3CCC(c4cnc(N5CCN6c7cc(-c8ccccc8O)nnc7NC[C@H]6C5)nc4)CC3)CC2)C(C)(C)C)cc1 [I-293] : 1 to 10 nM

Could you now consider this next molecule?
What does the data say about its DC50? Entry: C#Cc1ccc(CNC(=O)[C@@H]2C[C@@H](O)CN2C(=O)[C@@H](NC(=O)[C@H]2CC3(CC[C@H](N4CCN(c5cnc(N6CCc7[nH]c8nnc(-c9ccccc9O)cc8c7[C@H]6C)nc5)CC4)CC3)C2)C(C)(C)C)cc1 (single isomer, unassigned) [I-285]
10 to 100 nM

###

Experimental system: SMARCA4 (Homo sapiens, UniProt P51532)
Construct: SMARCA2/SMARCA4 protein degradation selectivity in MV4-11 cells; endogenous in cells; host or cells: MV4-11
Sequence (P51532 whole entry): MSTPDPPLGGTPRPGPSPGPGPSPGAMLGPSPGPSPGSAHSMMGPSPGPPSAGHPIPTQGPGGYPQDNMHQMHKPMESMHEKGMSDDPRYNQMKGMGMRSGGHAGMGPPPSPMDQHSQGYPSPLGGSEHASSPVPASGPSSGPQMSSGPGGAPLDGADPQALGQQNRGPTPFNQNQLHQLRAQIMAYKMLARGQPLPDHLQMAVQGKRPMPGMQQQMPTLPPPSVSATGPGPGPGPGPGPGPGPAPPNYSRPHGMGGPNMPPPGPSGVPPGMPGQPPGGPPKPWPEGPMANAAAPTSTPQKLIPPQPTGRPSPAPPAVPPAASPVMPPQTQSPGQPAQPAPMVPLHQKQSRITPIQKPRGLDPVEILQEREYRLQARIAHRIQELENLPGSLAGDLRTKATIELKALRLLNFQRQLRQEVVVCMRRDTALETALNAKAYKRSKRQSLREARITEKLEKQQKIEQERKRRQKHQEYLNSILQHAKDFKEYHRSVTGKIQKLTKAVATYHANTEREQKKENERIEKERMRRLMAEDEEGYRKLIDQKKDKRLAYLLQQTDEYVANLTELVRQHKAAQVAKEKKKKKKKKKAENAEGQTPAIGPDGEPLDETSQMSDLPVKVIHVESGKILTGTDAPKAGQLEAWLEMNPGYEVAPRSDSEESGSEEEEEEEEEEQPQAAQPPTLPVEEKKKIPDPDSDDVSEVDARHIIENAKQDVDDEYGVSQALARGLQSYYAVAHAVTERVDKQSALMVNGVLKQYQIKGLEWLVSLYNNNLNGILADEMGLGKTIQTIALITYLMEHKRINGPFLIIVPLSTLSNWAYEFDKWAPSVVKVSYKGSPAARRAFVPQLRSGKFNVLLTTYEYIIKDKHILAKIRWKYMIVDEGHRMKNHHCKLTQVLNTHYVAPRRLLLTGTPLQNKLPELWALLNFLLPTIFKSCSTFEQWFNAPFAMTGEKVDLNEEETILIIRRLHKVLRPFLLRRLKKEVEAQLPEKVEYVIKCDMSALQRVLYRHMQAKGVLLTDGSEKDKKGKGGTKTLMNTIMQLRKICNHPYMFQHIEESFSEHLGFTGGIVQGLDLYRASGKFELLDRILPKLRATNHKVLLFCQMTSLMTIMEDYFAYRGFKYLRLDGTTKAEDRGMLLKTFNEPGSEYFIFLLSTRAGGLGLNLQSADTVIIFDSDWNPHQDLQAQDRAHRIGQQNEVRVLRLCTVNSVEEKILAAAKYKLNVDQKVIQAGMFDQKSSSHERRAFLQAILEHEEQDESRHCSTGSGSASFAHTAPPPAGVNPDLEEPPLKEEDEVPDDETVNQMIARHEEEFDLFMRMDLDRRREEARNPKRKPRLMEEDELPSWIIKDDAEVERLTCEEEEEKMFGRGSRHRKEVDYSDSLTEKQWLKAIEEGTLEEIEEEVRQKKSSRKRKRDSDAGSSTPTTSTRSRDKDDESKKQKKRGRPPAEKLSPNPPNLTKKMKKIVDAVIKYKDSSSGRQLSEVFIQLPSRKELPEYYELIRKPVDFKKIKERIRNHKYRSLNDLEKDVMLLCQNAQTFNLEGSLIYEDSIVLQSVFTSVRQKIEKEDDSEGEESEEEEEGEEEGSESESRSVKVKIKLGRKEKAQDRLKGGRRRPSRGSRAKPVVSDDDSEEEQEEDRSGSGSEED
Assay protocol: SMARCA4 Western blot degradation in MV4-11 cells
Format: cell-based
Condition notes: MV4-11 cells, 24 h; read-out: SMARCA4 MSD MV411 degradation 24 h: Mean external-Abs DC50
Could you please report measured DC50 for the items listed next?

C#Cc1ccc(CNC(=O)[C@@H]2C[C@@H](O)CN2C(=O)[C@@H](NC(=O)CCCCCN2CCC(N3CC4(CC(N5CCN6c7cc(-c8ccccc8O)nnc7NC[C@H]6C5)C4)C3)CC2)C(C)(C)C)cc1 : > 100 nM

Could you now consider this next molecule?
DC50 of Cc1ncsc1-c1ccc(CNC(=O)[C@@H]2C[C@@H](O)CN2C(=O)[C@@H](NC(=O)[C@H]2CC3(C2)C[C@H](N2CCC(c4ccnc(N5CCN6c7cc(-c8ccccc8O)nnc7NC[C@H]6C5)n4)CC2)C3)C(C)(C)C)cc1 (single isomer, unassigned) [I-5] on SMARCA4 (Homo sapiens, UniProt P51532)?
> 100 nM

###

Experimental system: SMARCA2 (Homo sapiens)
Assay protocol: SMARCA2 Western blot degradation in MV4-11 cells
Type: cell-based
Design: SMARCA2/SMARCA4 protein degradation selectivity in MV4-11 cells; endogenous in cells; host or cells: MV4-11
Condition notes: SMARCA2/4 selectivity, MV4-11 cells
Observable: Selectivity in MV411

C#Cc1ccc([C@H](C)NC(=O)[C@@H]2C[C@@H](O)CN2C(=O)[C@@H](NC(=O)[C@H]2CC3(C2)C[C@H](c2cnc(N4CCC(N5CCN6c7cc(-c8ccccc8O)nnc7NC[C@H]6C5)CC4)nc2)C3)C(C)(C)C)cc1 (some centres unmarked) [I-363] : C (C (10-100 fold))
Cc1ncsc1-c1ccc(CNC(=O)[C@@H]2C[C@@H](O)CN2C(=O)C(c2cc(N3CC4(CC(N5CCC(c6cnc(N7CCc8[nH]c9nnc(-c%10ccccc%10O)cc9c8[C@H]7C)nc6)CC5)C4)C3)no2)C(C)C)cc1 (single isomer, unassigned) : D (D (<10 fold))
Cc1ncsc1-c1ccc(CNC(=O)[C@@H]2C[C@@H](O)CN2C(=O)[C@@H](NC(=O)C2(F)CC2)C(C)(C)C)c(OC2CN(CCN3CCC(c4cnc(N5CCc6[nH]c7nnc(-c8ccccc8O)cc7c6C5C)nc4)CC3)C2)c1 (some centres unmarked) : D (D (<10 fold))
C#Cc1ccc(CNC(=O)[C@@H]2C[C@@H](O)CN2C(=O)[C@@H](NC(=O)N2CC3(CC(N4CCC(c5cnc(N6CCc7[nH]c8nnc(-c9ccccc9O)cc8c7[C@H]6C)nc5)CC4)C3)C2)C(C)(C)C)cc1Cl : C (C (10-100 fold))
C#Cc1ccc(CNC(=O)[C@@H]2C[C@@H](O)CN2C(=O)[C@@H](NC(=O)C2CCN(C[C@H]3CC[C@H](N4CCc5[nH]c6nnc(-c7ccccc7O)cc6c5[C@H]4C)CC3)CC2)C(C)(C)C)cc1 (single isomer, unassigned) : C (C (10-100 fold))
Cc1ncsc1-c1ccc(CNC(=O)[C@@H]2C[C@@H](O)CN2C(=O)[C@@H](NC(=O)[C@H]2CC3(C2)C[C@H](N2CCN(c4cnc(N5CCN6c7cc(-c8ccccc8O)nnc7NC[C@H]6C5)nc4)CC2)C3)C(C)(C)C)cc1 (some centres unmarked) [I-19] : C (C (10-100 fold))

For each entry beneath this line, provide reported Selectivity in MV411.
1. C#Cc1ccc(CNC(=O)[C@@H]2C[C@@H](O)CN2C(=O)[C@@H](NC(=O)N2CCC[C@@H](CN3CCC(N4CCC(N5CCN6c7cc(-c8ccccc8O)nnc7NC[C@H]6C5)CC4)CC3)C2)C(C)(C)C)cc1 (single isomer, unassigned)
2. C#Cc1ccc(CNC(=O)[C@@H]2C[C@@H](O)CN2C(=O)[C@H](NC(=O)[C@H]2CCC3(CC2)C[C@H](N2CCN(c4cnc(N5CCN6c7cc(-c8ccccc8O)nnc7NC[C@H]6C5)nc4)CC2)C3)C(C)(C)CCO)c(Cl)c1 (single isomer, unassigned) [I-306]

1. D (D (<10 fold))
2. D (D (<10 fold))

###

Could you please report measured Dmax for the items listed next?
Experimental system: SMARCA2 (Homo sapiens, UniProt P51531)
Assay protocol: SMARCA2 Western blot degradation in MV4-11 cells
Type: cell-based
Parameters: SMARCA2/SMARCA4 protein degradation selectivity in MV4-11 cells; endogenous in cells; host or cells: MV4-11
Condition notes: MV4-11, MV4-11 cells, 24 h; read-out: SMARCA2 MSD MV411 degradation 24 h: average Dmax %

Worked examples, 4 molecules total:
C#Cc1ccc2c(c1)OCC[C@H]2NC(=O)[C@@H]1C[C@@H](O)CN1C(=O)[C@@H](NC(=O)N1CC2(CC(N3CCC(c4cnc(N5CCc6[nH]c7nnc(-c8ccccc8O)cc7c6[C@H]5C)nc4)CC3)C2)C1)C(C)(C)C (single isomer, unassigned) : 50 to 70%
C#Cc1ccc(CNC(=O)[C@@H]2C[C@@H](O)CN2C(=O)[C@@H](NC(=O)N2CCN(C[C@H]3CC[C@@H](N4CCC(N5CCc6[nH]c7nnc(-c8ccccc8O)cc7c6[C@H]5C)CC4)CC3)CC2)C(C)(C)C)cc1 : < 50%
Cc1ncsc1-c1ccc(CNC(=O)[C@@H]2C[C@@H](O)CN2C(=O)[C@@H](NC(=O)C2(F)CC2)C(C)(C)C)c(OCCN2CCC(c3cnc(N4CCN5c6cc(-c7ccccc7O)nnc6NC[C@H]5C4)nc3)CC2)c1 (single isomer, unassigned) : > 90%
C#Cc1ccc(CNC(=O)[C@@H]2C[C@@H](O)CN2C(=O)[C@@H](NC(=O)N2CC3(CC(N4CCC(c5cnc(N6CCc7[nH]c8nnc(-c9ccccc9O)cc8c7[C@H]6C)nc5)CC4)C3)C2)C(C)(C)C)c(O)c1 : > 90%

For each entry beneath this line, provide reported Dmax.
1. C#Cc1ccc(CNC(=O)[C@@H]2C[C@@H](O)CN2C(=O)[C@@H](NC(=O)[C@H]2CC3(CC[C@H](N4CCN(c5cnc(N6CCc7[nH]c8nnc(-c9ccccc9O)cc8c7[C@H]6C)nc5)CC4)CC3)C2)C(C)(C)C)cc1 (single isomer, unassigned)
2. Cc1ncsc1-c1ccc(CNC(=O)[C@@H]2C[C@@H](O)CN2C(=O)[C@@H](NC(=O)N2CC3(CCC(N4CCC(c5cnc(N6CCc7[nH]c8nnc(-c9ccccc9O)cc8c7C6C)nc5)CC4)CC3)C2)C(C)(C)C)cc1 (stereo partly drawn)
3. C#Cc1ccc(CNC(=O)[C@@H]2C[C@@H](O)CN2C(=O)[C@@H](NC(=O)N2CC3(CC(N4CCC(N5CCc6[nH]c7nnc(-c8ccccc8O)cc7c6[C@H]5C)CC4)C3)C2)C(C)(C)C)cc1
4. C#Cc1ccc([C@H](C)NC(=O)[C@@H]2C[C@@H](O)CN2C(=O)[C@H](c2cc(OCCN3CCC(N4CCC(N5CCC(CN6CCN7c8cc(-c9ccccc9O)nnc8NC[C@H]7C6)CC5)CC4)CC3)no2)C(C)C)cc1 (single isomer, unassigned)
5. C#Cc1ccc(CNC(=O)[C@@H]2C[C@@H](O)CN2C(=O)[C@@H](NC(=O)N2CC3(CC(N4CCC(c5cnc(N6CCc7[nH]c8nnc(-c9ccccc9O)cc8c7[C@H]6CO)nc5)CC4)C3)C2)C(C)(C)C)c(Cl)c1

1: 70 to 90%; 2: < 50%; 3: 70 to 90%; 4: > 90%; 5: 70 to 90%
